All figures here come from ChEMBL document CHEMBL1201862.

Test system: T47D
Procedure Summary: NCI tumour cell line growth inhibition, 48 h
Active and inactive are the calls of the source. Rule as the data show it: active = GI50 up to about 1.1 µM and inactive = higher.

Compound: COc1cc2c(cc1OCCCC(=O)Nc1cc(C(=O)Nc3cc(C(=O)Nc4cc(C(=O)NCCCN(C)C)n(C)n4)n(C)n3)n(C)n1)N=CC1CCCN1C2=O (centres undefined)
GI50: 56 µM (inactive)
--
Compound: COC(=O)c1c([N+](=O)[O-])ncn1[C@H]1OC[C@@H](OC(C)=O)[C@@H](OC(C)=O)[C@@H]1OC(C)=O
GI50: > 100 µM (inactive)
--
Compound: COn1cc(C=O)c2ccccc21
GI50: 65.8 µM (inactive)
--
Compound: Cc1ccc(O)c(-c2cc(-c3ccccc3)nc(/N=C\c3ccccc3)n2)c1
GI50: 7.69 µM (inactive)
--
Compound: C=CC[C@H](C)CCC(=O)N1[C@H]2CC3CC[C@@]2(CS1(=O)=O)C3(C)C
GI50: 42.6 µM (inactive)
--
Compound: Cc1cn(C(=O)NC23CC4CC(CC(C4)C2)C3)c(=O)[nH]c1=O
GI50: 31.3 µM (inactive)
--
Compound: CN(C)C1(N(C)C)Oc2c(c(=O)n(C)c(=O)n2C)C(c2ccccc2Br)C1(F)F (centres undefined)
GI50: > 100 µM (inactive)
--
Compound: CC(=N\N=C\c1ccccn1)/C(C)=N/N=C(C)/C(C)=N/N=C(C)/C(C)=N/N=C/c1ccccn1
GI50: > 100 µM (inactive)
--
Compound: O=[N+]([O-])c1cc(-[n+]2cc([O-])on2)ccc1Cl
GI50: 16.4 µM (inactive)
--
Compound: O=C1Nc2ccc(Br)cc2/C1=N/c1ccc(Cl)cc1
GI50: 16.9 µM (inactive)
--
Compound: CC12CCC(=O)C=C1CCC1C2CCC2(C)C(C(=O)Cn3cnc4c(=S)nc[nH]c43)CCC12 (centres undefined)
GI50: 9.23 µM (inactive)
--
Compound: CCCCNC(=S)N/N=C/c1cccc(C)n1
GI50: 26 µM (inactive)
--
Compound: CC(C)=CC(=O)O[C@H]1C(=O)O[C@@H]2C[C@H]3[C@H](C)C(=O)C(O[C@@H]4O[C@H](CO)[C@@H](O)[C@H](O)[C@H]4O)=C[C@]3(C)[C@H]3[C@@H](O)[C@H](O)[C@]4(C(=O)O)OC[C@]32[C@@H]14 [BRUCEOSIDE D]
GI50: 51.9 µM (inactive)
--
Compound: Cc1ccc2c(c1C)CC1(Cc3ccc(C)c(C)c3C1=O)C2=O (centres undefined)
GI50: > 100 µM (inactive)
--
Compound: Cc1[nH]c(-c2ccccc2)c(O)c1C(=O)OC1CC(C)CCC1C(C)C (centres undefined)
GI50: 13.7 µM (inactive)
--
Compound: O=C1c2ccccc2-c2c1c1ccccc1c(=O)n2Cc1ccccc1
GI50: > 100 µM (inactive)
--
Compound: Cc1cc(=O)n2nc(SCc3ccccc3)sc2n1
GI50: 42.3 µM (inactive)
--
Compound: CC(C)OC(=O)c1ccc(CCc2cc(O)c(Br)cc2O)cc1
GI50: 22 µM (inactive)
--
Compound: COc1cc(/C=C\c2ccc(SC)cc2)cc(OC)c1OC
GI50: 19.7 µM (inactive)
